Could you please report measured growth inhibition for the items listed next?
# TEST_DESCRIPTION: NCI Yeast Anticancer Drug Screen. Data for the cln2 rad14 strain (AID 165);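 also: 0% = growth equal to vehicle treated cultures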
# RECORDED_CONDITIONS: S. cerevisiae cln2 rad14 strain, at 50.0 µM, hits give high values
About 79,000 compounds went through this panel and 15% of them were active in at least one assay; those are over-represented in the sample as a whole.
One number for each entry, in %.

CCN(CC)CC(O)c1ccc2ccccc2c1 (stereo not drawn); -21.2

Return reported growth inhibition values for all items listed beneath this line.
1. O=C(Nc1ccc(C(F)(F)F)cc1)NC(F)(F)F
2. N#CC1(Nc2ccc(-c3ccc(NC4(C#N)CCCC4)cc3)cc2)CCCC1

Out:
-16.6
-40.9
